Recorded values, source patent US8937078B2.

Documented log10 IC50 across a set of compounds
# measuredOn: human PHD2 (PHD2181-417) (Homo sapiens, UniProt Q9GZT9)
# Construct: Smt (SUMO) tag (cleaved yes); made in house; host or cells: E. coli BL21 (pBAD vector)
# Sequence (Q9GZT9 181-417): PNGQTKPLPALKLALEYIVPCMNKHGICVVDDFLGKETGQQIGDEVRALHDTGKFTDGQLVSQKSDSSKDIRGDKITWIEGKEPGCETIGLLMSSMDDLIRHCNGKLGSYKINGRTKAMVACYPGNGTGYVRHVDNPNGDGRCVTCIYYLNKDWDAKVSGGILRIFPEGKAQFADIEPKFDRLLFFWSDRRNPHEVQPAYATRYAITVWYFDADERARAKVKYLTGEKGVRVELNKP
# procedureDetails: PHD enzymatic assay ([14C]-succinic acid production)
# Format: biochemical
# settings: PHD2181-417, HIF-1α peptide 10 μM, average of results; read-out: Enzyme pIC50 (converted)
All values: log10 IC50 [nM].

Kindly note the recorded log10 IC50 for O=C(O)c1cnn(-c2nc3ccc(OC4CCCCC4)cc3c(=O)[nH]2)c1 , which is 1.30

Kindly note the recorded log10 IC50 for O=C(O)c1cnn(-c2nc3ccc(NC(=O)c4ccccc4)cc3c(=O)[nH]2)c1 , which is 1.40

Kindly note the recorded log10 IC50 for CC(C)c1ccc2nc(-n3cc(C(=O)O)cn3)[nH]c(=O)c2c1 , which is 1.20

----------
Documented IC50 across a set of compounds
# measuredOn: human PHD2 (PHD2181-417) (Homo sapiens)
# Construct: Smt (SUMO) tag (cleaved yes); made in house; host or cells: E. coli BL21 (pBAD vector)
# procedureDetails: PHD enzymatic assay ([14C]-succinic acid production)
# Type: biochemical
# settings: PHD2181-417, HIF-1α peptide 10 μM, average of results; read-out: Enzyme pIC50 (converted)
# Method: Protein production was achieved by expression in BL21 cells grown in Terrific Broth containing 100 μg/ml ampicillin. Cell cultures were inoculated at 37° C. and grown to an OD600 of 0.8. Cultures were induced with 0.1% arabinose and grown overnight at 20° C. with continuous shaking at 225 rpm. Cells were then harvested by centrifugation and stored at −80° C. […]
Write it as a number; the unit nM goes unstated.

Kindly note the recorded IC50 for O=C(O)c1cnn(-c2nc3cc(F)ccc3c(=O)[nH]2)c1 [Example 133] , which is 39.8

Others:
Kindly note the recorded IC50 for O=C(O)c1cnn(-c2nc3ccc(-c4cccc(-c5ccccc5)c4)cc3c(=O)[nH]2)c1 [Example 70] , which is 31.6

Kindly note the recorded IC50 for O=C(O)c1cnn(-c2nc3ccc(Br)cc3c(=O)[nH]2)c1 [Example 13] , which is 63.1

Kindly note the recorded IC50 for Cc1ccc(Oc2ccc3nc(-n4cc(C(=O)O)cn4)[nH]c(=O)c3c2)cc1 [Example 47] , which is 31.6

Kindly note the recorded IC50 for COc1ccc(S(=O)(=O)c2cc3c(=O)[nH]c(-n4cc(C(=O)O)cn4)nc3cc2Cl)cc1OC [Example 71] , which is 15.8

----------
# System: Hep-3B cells
# procedureDetails: Cellular assay: erythropoietin secretion in Hep-3B cells
# Assay type: cell-based, human
# settings: Homo sapiens, Hep3B, 100 μM compound, 24 hours, percent of EPO secretion relative to assay control compound 7-[(4-Chloro-phenyl)-(5-methyl-isoxazol-3-ylamino)-methyl]-quinolin-8-ol, read-out: Cellular % EPO Stimulation
Mark Criterion met only when Emax at 100 µM stays strictly below 20%. Values equal to the cut-off are Criterion not met.

Use these answered entries as a reference point.
Q: Hello, is Emax at 100 µM of the following compound strictly smaller than 20%? Cc1cc(C)c2c(=O)[nH]c(-n3cc(C(=O)O)cn3)nc2c1
A: Criterion met

Q: Hello, is Emax at 100 µM of the following compound strictly smaller than 20%? O=C(O)c1cnn(-c2nc3ccc(Cl)cc3c(=O)[nH]2)c1
A: Criterion not met

Others:
Q: Hello, is Emax at 100 µM of the following compound strictly smaller than 20%? CC(C)(C)c1ccc(Sc2cc3c(=O)nc(-n4cc(C(=O)O)cn4)[nH]c3cc2Cl)cc1
A: Criterion not met

Q: Hello, is Emax at 100 µM of the following compound strictly smaller than 20%? CC(C)(C)c1ccc2nc(-n3cc(C(=O)O)cn3)[nH]c(=O)c2c1
A: Criterion not met

----------
# measuredOn: human PHD2 (PHD2181-417) (Homo sapiens)
# Construct: Smt (SUMO) tag (cleaved yes); made in house; host or cells: E. coli BL21 (pBAD vector)
# procedureDetails: PHD enzymatic assay ([14C]-succinic acid production)
# Format: biochemical
# settings: PHD2181-417, HIF-1α peptide 10 μM, average of results; read-out: Enzyme pIC50 (converted)
attributeMeasured: IC50 (nM)
Write it as a number; the unit nM goes unstated.

Examples with their reported IC50 follow.
Kindly note the recorded IC50 for CCOc1ccc2nc(-n3cc(C(=O)O)cn3)[nH]c(=O)c2c1 [Example 121] , which is 10

Kindly note the recorded IC50 for Cc1cccc(-c2ccc3nc(-n4cc(C(=O)O)cn4)[nH]c(=O)c3c2)c1 [Example 190] , which is 25.1

Kindly note the recorded IC50 for O=C(O)c1cnn(-c2nc3cc(Cl)cc(Cl)c3c(=O)[nH]2)c1 [Example 132] , which is 126

Others:
Kindly note the recorded IC50 for O=C(O)c1cnn(-c2nc3ccc(Oc4cccc(Cl)c4)cc3c(=O)[nH]2)c1 [Example 30] , which is 25.1

Kindly note the recorded IC50 for O=C(O)c1cnn(-c2nc3ccc(N4CCOCC4)cc3c(=O)[nH]2)c1 [Example 107] , which is 39.8

Kindly note the recorded IC50 for CC(C)(C)c1cc(Oc2ccc3nc(-n4cc(C(=O)O)cn4)[nH]c(=O)c3c2)cc(C(C)(C)C)c1 [Example 35] , which is 31.6

Kindly note the recorded IC50 for CS(=O)(=O)c1cccc(-c2ccc3nc(-n4cc(C(=O)O)cn4)[nH]c(=O)c3c2)c1 [Example 206] , which is 25.1

Kindly note the recorded IC50 for CN(C)c1cccc2nc(-n3cc(C(=O)O)cn3)[nH]c(=O)c12 [Example 151] , which is 631

Kindly note the recorded IC50 for O=C(O)c1cnn(-c2nc3cc4c(cc3c(=O)[nH]2)CCCC4)c1 [Example 143] , which is 31.6

Kindly note the recorded IC50 for Cc1ccccc1-c1ccc2c(=O)[nH]c(-n3cc(C(=O)O)cn3)nc2c1 [Example 188] , which is 79.4

----------
# Test system: Hep-3B cells
# procedureDetails: Cellular assay: erythropoietin secretion in Hep-3B cells
# Format: cell-based, human
# settings: Homo sapiens, Hep3B, 100 μM compound, 24 hours, percent of EPO secretion relative to assay control compound 7-[(4-Chloro-phenyl)-(5-methyl-isoxazol-3-ylamino)-methyl]-quinolin-8-ol, read-out: Cellular % EPO Stimulation
Assign classes using reported Emax at 100 µM values and the ranges Low (below 20%), Mid (20% to below 80%), High (80% or more), please.

Use these answered entries as a reference point.
Q: Input Cc1cccc(C)c1Oc1cc2c(=O)[nH]c(-n3cc(C(=O)O)cn3)nc2cc1F [Example 51] ; output its category
A: High

Q: Input CN(C)c1cccc2nc(-n3cc(C(=O)O)cn3)[nH]c(=O)c12 [Example 151] ; output its category
A: Low

Q: Input O=C(O)c1cnn(-c2nc3cc(Cl)ccc3c(=O)[nH]2)c1 [Example 1] ; output its category
A: Mid

Q: Input O=C(O)c1cnn(-c2nc3ccc(Oc4cccc5ccccc45)cc3c(=O)[nH]2)c1 [Example 29] ; output its category
A: High

Q: Input CC(C)Oc1ccc2c(=O)[nH]c(-n3cc(C(=O)O)cn3)nc2c1 [Example 149] ; output its category
A: Low

Others:
Q: Input O=C(O)c1cnn(-c2nc3cc(F)c(Oc4cccc5ccccc45)cc3c(=O)[nH]2)c1 [Example 57] ; output its category
A: High

Q: Input CC(=O)Nc1ccc2nc(-n3cc(C(=O)O)cn3)[nH]c(=O)c2c1 [Example 167] ; output its category
A: Mid

Q: Input O=C(O)c1cnn(-c2nc3cc(Cl)cc(Cl)c3c(=O)[nH]2)c1 [Example 132] ; output its category
A: Low

----------
# measuredOn: human PHD2 (PHD2181-417) (Homo sapiens)
# Construct: Smt (SUMO) tag (cleaved yes); made in house; host or cells: E. coli BL21 (pBAD vector)
# procedureDetails: PHD enzymatic assay ([14C]-succinic acid production)
# Type: biochemical
# settings: PHD2181-417, HIF-1α peptide 10 μM, average of results; read-out: Enzyme pIC50 (converted)
Documented log10 IC50 across a set of compounds
All values: log10 IC50 [nM].

Examples with their reported log10 IC50 follow.
Kindly note the recorded log10 IC50 for O=C(O)c1cnn(-c2nc3ccc4[nH]ccc4c3c(=O)[nH]2)c1 , which is 2.20

Kindly note the recorded log10 IC50 for O=C(O)c1cnn(-c2nc3cc(-c4cccc(Cl)c4)ccc3c(=O)[nH]2)c1 , which is 1.70

Kindly note the recorded log10 IC50 for COc1cc2nc(-n3cc(C(=O)O)cn3)[nH]c(=O)c2c(OC)c1OC , which is 2.50

Others:
Kindly note the recorded log10 IC50 for O=C(O)c1cnn(-c2nc3ccc(-c4ccc(Cl)cc4)cc3c(=O)[nH]2)c1 , which is 1.30

Kindly note the recorded log10 IC50 for O=C(O)c1cnn(-c2nc3cc(F)c(Oc4ccccc4)c(F)c3c(=O)[nH]2)c1 , which is 1.40

Kindly note the recorded log10 IC50 for O=C(O)c1cnn(-c2nc3cc(Oc4ccccc4)ccc3c(=O)[nH]2)c1 , which is 1.80

Kindly note the recorded log10 IC50 for COc1ccccc1-c1ccc2nc(-n3cc(C(=O)O)cn3)[nH]c(=O)c2c1 , which is 1.30

Kindly note the recorded log10 IC50 for O=C(O)c1cnn(-c2nc3cc(Cl)c(Oc4cccc5c4CCCC5)cc3c(=O)[nH]2)c1 , which is 1.50
